Reported koff by item:
- Tested Target: T1, huEpoR protein (soluble human erythropoietin receptor) (human, UniProt P19235 25-250, limits assumed)
- T1 construct: also called soluble huEpoR; biotinylated huEpoR
- T1 sequence (looked up): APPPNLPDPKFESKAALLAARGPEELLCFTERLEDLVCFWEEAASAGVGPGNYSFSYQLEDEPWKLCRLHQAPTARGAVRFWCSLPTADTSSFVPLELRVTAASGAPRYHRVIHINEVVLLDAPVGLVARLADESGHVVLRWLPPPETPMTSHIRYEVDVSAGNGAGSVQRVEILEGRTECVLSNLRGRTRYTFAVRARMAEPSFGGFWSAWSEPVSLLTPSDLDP
- Assay Explanation: SPR, Biacore T100; scFv-Fc captured on anti-human IgG Fc CM5 chip, EpoR as analyte; 1:1 fit;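 note: measured at 25 °C in HBS-EP buffer with 0.1 mg/ml BSA, flowed at 50 µl/min, 1 min association then dissociation (10 min human, 5 min cyno EpoR)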
Write the value in s⁻¹ as a bare number.

| Binder | koff [s⁻¹] |
| --- | --- |
| Mxb 13 (clone 13 scFv-Fc protein) (Fc fusion, Tested as scFv-Fc (maxibody) with an Fc derived from human IgG1) VH: QVQLQQSGGGVVQPGRSLRLSCAASGFTFSDYAMHWVRQAPGKGLEWVAVISNHGKSTYYADSVKGRFTISRDNSKHMLYLQMNSLRADDTALYYCARDIALAGDYWGQGTLVTVSA VL: DIQMTQSPSSLSASVGDRVTITCRASQSISSYLNWYQQLPGKVPKLLIYGASKLQSGVPSRFSGSGSGTDFTLTISSLQPEDFATYYCLQDYNYPLTFGPGTRLEIK | 0.0568 |

Task: Answer with the recorded koff for the binder listed here: Mxb 318 (clone 318 scFv-Fc protein) (Fc fusion, Tested as scFv-Fc (maxibody) with an Fc derived from human IgG1) VH: QVQLVESGGGLVQPGGSLRLSCAVSGFTFSKYWMTWVRQAPGKGLEWVANIKPDGSEKYYVESVKGRFTISRDNAKNSVYLQMNSVRAEDTAVYYCARVSRGGSFSDWGQGTLVTVSS VL: QSVLTQPPSASGSPGQSVTISCTGTSSDVGGYNYVSWYQQHPGRAPKLIIYEVSKRPSGVPDRFSGSKSGNTASLTVSGLQADDEADYYCNSYAGSIYVFGSGTKVTVL
Output: 0.558
